Tested on: MCF7
Assay: Effect on microtubule assembly in MCF-7 cells, compared to paclitaxel (0.3 uM), given as ratio of respective ED50
Assay type: functional, Homo sapiens
Quantity Name: Ratio
// no unit, no text: just the number

>  <Chemical Structure>
CC(=O)O[C@H]1C(=O)[C@]2(C)[C@@H](OC(=O)c3ccco3)C[C@H]3OC[C@@]3(OC(C)=O)[C@H]2[C@H](OC(=O)c2ccccc2)[C@]2(O)C[C@H](OC(=O)[C@H](O)[C@@H](NC(=O)c3ccccc3)c3ccccc3)C(C)=C1C2(C)C

>  <Quantity Name>
Ratio

>  <Val>
22

$$$$

Turning to the following compound.
Request: # get_value(readout='Ratio', item= CSCC(=O)O[C@H]1C[C@H]2OC[C@@]2(OC(C)=O)[C@H]2[C@H](OC(=O)c3ccccc3)[C@]3(O)C[C@H](OC(=O)[C@H](O)[C@@H](NC(=O)c4ccccc4)c4ccccc4)C(C)=C([C@@H](OC(C)=O)C(=O)[C@]12C)C3(C)C )
Response: 0.7

---

System: MCF7
Experiment: Effect on microtubule assembly in MCF-7 cells, compared to paclitaxel (0.3 uM), given as ratio of respective ED50
Type: functional, Homo sapiens
Listing: Ratio of selected molecules

For orientation, consider the following solved cases.
>  <Chemical Structure>
CC(=O)O[C@H]1C(=O)[C@]2(C)[C@@H](OC(=O)C(C)(C)C)C[C@H]3OC[C@@]3(OC(C)=O)[C@H]2[C@H](OC(=O)c2ccccc2)[C@]2(O)C[C@H](OC(=O)[C@H](O)[C@@H](NC(=O)c3ccccc3)c3ccccc3)C(C)=C1C2(C)C

>  <Quantity Name>
Ratio

>  <Val>
8.3

$$$$
>  <Chemical Structure>
CC(=O)O[C@H]1C(=O)[C@]2(C)[C@@H](OC(=O)C3CC3)C[C@H]3OC[C@@]3(OC(C)=O)[C@H]2[C@H](OC(=O)c2ccccc2)[C@]2(O)C[C@H](OC(=O)[C@H](O)[C@@H](NC(=O)c3ccccc3)c3ccccc3)C(C)=C1C2(C)C

>  <Quantity Name>
Ratio

>  <Val>
22

$$$$
>  <Chemical Structure>
CC(=O)O[C@H]1C(=O)[C@]2(C)[C@@H](OC(=O)CC#N)C[C@H]3OC[C@@]3(OC(C)=O)[C@H]2[C@H](OC(=O)c2ccccc2)[C@]2(O)C[C@H](OC(=O)[C@H](O)[C@@H](NC(=O)c3ccccc3)c3ccccc3)C(C)=C1C2(C)C

>  <Quantity Name>
Ratio

>  <Val>
1.3

$$$$

Now take the following molecule into account.
Request: Which measured Ratio value corresponds to CC(=O)O[C@H]1C(=O)[C@]2(C)[C@@H](OC(=O)c3ccsc3)C[C@H]3OC[C@@]3(OC(C)=O)[C@H]2[C@H](OC(=O)c2ccccc2)[C@]2(O)C[C@H](OC(=O)[C@H](O)[C@@H](NC(=O)c3ccccc3)c3ccccc3)C(C)=C1C2(C)C ?
Response: 1.7

---

Ratio listing for selected compounds.
System: MCF7
Test: Effect on microtubule assembly in MCF-7 cells, compared to paclitaxel (0.3 uM), given as ratio of respective ED50
Format: functional, Homo sapiens

>  <Compound>
CC(=O)O[C@H]1C(=O)[C@]2(C)[C@@H](OC(=O)c3cccnc3C)C[C@H]3OC[C@@]3(OC(C)=O)[C@H]2[C@H](OC(=O)c2ccccc2)[C@]2(O)C[C@H](OC(=O)[C@H](O)[C@@H](NC(=O)c3ccccc3)c3ccccc3)C(C)=C1C2(C)C

>  <System>
MCF7

>  <Ratio>
32

$$$$
>  <Compound>
COc1ccc(C(=O)O[C@H]2C[C@H]3OC[C@@]3(OC(C)=O)[C@H]3[C@H](OC(=O)c4ccccc4)[C@]4(O)C[C@H](OC(=O)[C@H](O)[C@@H](NC(=O)c5ccccc5)c5ccccc5)C(C)=C([C@@H](OC(C)=O)C(=O)[C@]23C)C4(C)C)cc1

>  <System>
MCF7

>  <Ratio>
22

$$$$
>  <Compound>
CC(=O)O[C@H]1C(=O)[C@]2(C)[C@@H](OC(=O)/C=C/Cl)C[C@H]3OC[C@@]3(OC(C)=O)[C@H]2[C@H](OC(=O)c2ccccc2)[C@]2(O)C[C@H](OC(=O)[C@H](O)[C@@H](NC(=O)c3ccccc3)c3ccccc3)C(C)=C1C2(C)C

>  <System>
MCF7

>  <Ratio>
5.3

$$$$
>  <Compound>
CC(=O)OCC(=O)O[C@H]1C[C@H]2OC[C@@]2(OC(C)=O)[C@H]2[C@H](OC(=O)c3ccccc3)[C@]3(O)C[C@H](OC(=O)[C@H](O)[C@@H](NC(=O)c4ccccc4)c4ccccc4)C(C)=C([C@@H](OC(C)=O)C(=O)[C@]12C)C3(C)C [PACLITAXEL C7 ACETOXYACETIC ACID ESTER]

>  <System>
MCF7

>  <Ratio>
1.7

$$$$
>  <Compound>
CC(=O)O[C@H]1C(=O)[C@]2(C)[C@@H](OC(=O)c3ccc(C)cc3)C[C@H]3OC[C@@]3(OC(C)=O)[C@H]2[C@H](OC(=O)c2ccccc2)[C@]2(O)C[C@H](OC(=O)[C@H](O)[C@@H](NC(=O)c3ccccc3)c3ccccc3)C(C)=C1C2(C)C

>  <System>
MCF7

>  <Ratio>
25

$$$$
>  <Compound>
COCC(=O)O[C@H]1C[C@H]2OC[C@@]2(OC(C)=O)[C@H]2[C@H](OC(=O)c3ccccc3)[C@]3(O)C[C@H](OC(=O)[C@H](O)[C@@H](NC(=O)c4ccccc4)c4ccccc4)C(C)=C([C@@H](OC(C)=O)C(=O)[C@]12C)C3(C)C [PACLITAXEL C7 METHOXYACETIC ACID ESTER]

>  <System>
MCF7

>  <Ratio>
1

$$$$
>  <Compound>
CC(=O)O[C@H]1C(=O)[C@]2(C)[C@@H](OC(C)=O)C[C@H]3OC[C@@]3(OC(C)=O)[C@H]2[C@H](OC(=O)c2ccccc2)[C@]2(O)C[C@H](OC(=O)[C@H](O)[C@@H](NC(=O)c3ccccc3)c3ccccc3)C(C)=C1C2(C)C

>  <System>
MCF7

>  <Ratio>
0.7

$$$$
>  <Compound>
CCCCC(=O)O[C@H]1C[C@H]2OC[C@@]2(OC(C)=O)[C@H]2[C@H](OC(=O)c3ccccc3)[C@]3(O)C[C@H](OC(=O)[C@H](O)[C@@H](NC(=O)c4ccccc4)c4ccccc4)C(C)=C([C@@H](OC(C)=O)C(=O)[C@]12C)C3(C)C [PACLITAXEL C7 VALERIC ACID ESTER]

>  <System>
MCF7

>  <Ratio>
0.7

$$$$

Request: I'd like to know its Ratio. The compound in question is CC(=O)O[C@H]1C(=O)[C@]2(C)[C@@H](OC(=O)c3ccccc3)C[C@H]3OC[C@@]3(OC(C)=O)[C@H]2[C@H](OC(=O)c2ccccc2)[C@]2(O)C[C@H](OC(=O)[C@H](O)[C@@H](NC(=O)c3ccccc3)c3ccccc3)C(C)=C1C2(C)C [PACLITAXEL C7 BENZOIC ACID ESTER]
Response: 8.3

Request: For the compound shown here, CC(=O)O[C@H]1C(=O)[C@]2(C)[C@@H](OC(=O)c3ccc(Cl)cc3)C[C@H]3OC[C@@]3(OC(C)=O)[C@H]2[C@H](OC(=O)c2ccccc2)[C@]2(O)C[C@H](OC(=O)[C@H](O)[C@@H](NC(=O)c3ccccc3)c3ccccc3)C(C)=C1C2(C)C , give the reported Ratio.
Response: 13

Request: What measured Ratio goes with CC(=O)O[C@H]1C(=O)[C@]2(C)[C@@H](OC(=O)c3cccn3C)C[C@H]3OC[C@@]3(OC(C)=O)[C@H]2[C@H](OC(=O)c2ccccc2)[C@]2(O)C[C@H](OC(=O)[C@H](O)[C@@H](NC(=O)c3ccccc3)c3ccccc3)C(C)=C1C2(C)C ?
Response: 8.3

Request: Could you tell me which Ratio is on file for C/C=C/C(=O)O[C@H]1C[C@H]2OC[C@@]2(OC(C)=O)[C@H]2[C@H](OC(=O)c3ccccc3)[C@]3(O)C[C@H](OC(=O)[C@H](O)[C@@H](NC(=O)c4ccccc4)c4ccccc4)C(C)=C([C@@H](OC(C)=O)C(=O)[C@]12C)C3(C)C [PACLITAXEL C7 CROTONIC ACID ESTER] ?
Response: 6.7

Request: Any idea what Ratio was measured for CC(=O)O[C@H]1C(=O)[C@]2(C)[C@@H](OC(=O)C3CCCC3)C[C@H]3OC[C@@]3(OC(C)=O)[C@H]2[C@H](OC(=O)c2ccccc2)[C@]2(O)C[C@H](OC(=O)[C@H](O)[C@@H](NC(=O)c3ccccc3)c3ccccc3)C(C)=C1C2(C)C ?
Response: 1

Request: Tell me the measured Ratio of CC(=O)O[C@H]1C(=O)[C@]2(C)[C@@H](OC(=O)c3ccc(Cl)c(Cl)c3)C[C@H]3OC[C@@]3(OC(C)=O)[C@H]2[C@H](OC(=O)c2ccccc2)[C@]2(O)C[C@H](OC(=O)[C@H](O)[C@@H](NC(=O)c3ccccc3)c3ccccc3)C(C)=C1C2(C)C , please.
Response: 24
